ASSAY_TARGET: T1, Human Siglec-9 mutant M8 (human, UniProt Q9Y336 18-463)
T1 construct: Expressed on HEK293T cells; also called Mutant 8
T1 sequence (Q9Y336 other isoform, or with tags, fused parts or gaps mutant): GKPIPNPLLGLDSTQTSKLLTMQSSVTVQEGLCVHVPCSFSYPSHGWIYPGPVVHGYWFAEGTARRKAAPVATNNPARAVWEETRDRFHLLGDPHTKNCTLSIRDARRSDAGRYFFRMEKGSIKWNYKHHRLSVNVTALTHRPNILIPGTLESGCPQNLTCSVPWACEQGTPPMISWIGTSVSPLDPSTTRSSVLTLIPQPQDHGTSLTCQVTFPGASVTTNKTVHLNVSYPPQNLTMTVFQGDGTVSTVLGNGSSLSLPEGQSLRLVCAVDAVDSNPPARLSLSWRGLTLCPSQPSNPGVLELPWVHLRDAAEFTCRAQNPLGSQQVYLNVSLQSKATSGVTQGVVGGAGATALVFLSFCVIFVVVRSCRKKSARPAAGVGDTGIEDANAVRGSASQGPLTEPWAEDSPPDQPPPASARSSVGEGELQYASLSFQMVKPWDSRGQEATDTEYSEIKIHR
MEASUREMENT_DESCRIPTION: flow cytometry, HEK293T transfectants
QUANTITY: binding result

mAbA (antibody, human IgG1, V domains shown) VH: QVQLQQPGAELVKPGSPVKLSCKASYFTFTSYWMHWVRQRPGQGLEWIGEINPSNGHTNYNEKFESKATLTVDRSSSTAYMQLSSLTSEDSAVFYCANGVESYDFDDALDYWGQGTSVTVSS VL: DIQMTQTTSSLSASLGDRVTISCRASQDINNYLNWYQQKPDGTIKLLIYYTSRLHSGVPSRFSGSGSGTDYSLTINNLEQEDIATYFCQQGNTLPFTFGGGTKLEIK; binds

Reference source for all entries: patent US20200369765A1
